experiment.summary: Cmax in Sprague-Dawley rat at 1 mg/kg, po up to 24 hrs by LC/MS/MS analysis
Assay type: ADME, organism-based
Set-up: dose 1 mg/kg, route oral
measurement.setup: in vivo
outcome.measure: Cmax (nM)
Form entry: value (nM) — number only.

Query: Look up Cmax for this compound: "N[C@@]1(C(=O)O)C[C@@H](F)[C@H]2[C@H](C(=O)O)[C@H]21"
Reply: 713

----------
experiment.summary: Clearance in Sprague-Dawley rat at 3 mg/kg, iv up to 24 hrs by LC/MS/MS analysis
Type: ADME, organism-based
Set-up: dose 3 mg/kg, route intravenous
measurement.setup: in vivo
outcome.measure: clearance (mL/min/kg)
Form entry: value (mL/min/kg) — number only.

Query: Look up clearance for this compound: "N[C@@]1(C(=O)O)C[C@@H](F)[C@H]2[C@H](C(=O)O)[C@H]21"
Reply: 14.8

----------
experiment.summary: Tmax in Sprague-Dawley rat at 3 mg/kg, po by LC/MS/MS analysis
Assay type: ADME, organism-based
Parameters: dose 3 mg/kg, route oral
measurement.setup: in vivo
outcome.measure: Tmax (h)
Form entry: value (h) — number only.

Query: Look up Tmax for this compound: "N[C@@]1(C(=O)O)C[C@@H](F)[C@H]2[C@H](C(=O)O)[C@H]21"
Reply: 1.8

----------
experimental.system: Metabotropic glutamate receptor 3 (Homo sapiens, UniProt Q14832)
Sequence (Q14832 whole entry): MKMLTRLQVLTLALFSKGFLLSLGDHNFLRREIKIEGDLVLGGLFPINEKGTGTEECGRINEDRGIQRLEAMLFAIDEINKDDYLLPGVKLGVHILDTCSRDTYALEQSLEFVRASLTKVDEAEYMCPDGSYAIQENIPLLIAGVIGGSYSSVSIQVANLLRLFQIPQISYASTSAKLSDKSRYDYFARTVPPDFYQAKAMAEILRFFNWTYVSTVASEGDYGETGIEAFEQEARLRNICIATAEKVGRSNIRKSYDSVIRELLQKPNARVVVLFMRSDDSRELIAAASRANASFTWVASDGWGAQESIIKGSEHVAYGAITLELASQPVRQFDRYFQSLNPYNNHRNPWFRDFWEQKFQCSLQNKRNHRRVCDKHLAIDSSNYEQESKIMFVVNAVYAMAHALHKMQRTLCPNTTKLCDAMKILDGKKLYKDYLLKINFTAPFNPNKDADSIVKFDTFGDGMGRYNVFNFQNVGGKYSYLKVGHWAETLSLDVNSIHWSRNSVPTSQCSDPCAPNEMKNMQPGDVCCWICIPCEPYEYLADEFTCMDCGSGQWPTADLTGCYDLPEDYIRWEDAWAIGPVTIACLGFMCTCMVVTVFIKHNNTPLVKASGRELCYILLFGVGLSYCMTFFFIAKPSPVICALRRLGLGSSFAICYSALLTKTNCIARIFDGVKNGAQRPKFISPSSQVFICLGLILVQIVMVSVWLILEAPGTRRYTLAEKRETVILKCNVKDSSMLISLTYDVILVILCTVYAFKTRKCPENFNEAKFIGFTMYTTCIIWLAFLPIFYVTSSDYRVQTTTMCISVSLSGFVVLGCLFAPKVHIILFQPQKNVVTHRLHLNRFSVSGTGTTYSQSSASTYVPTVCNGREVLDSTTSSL
experiment.summary: Antagonist activity at human mGlu3 receptor expressed in golden Syrian hamster AV12 cells coexpressing EAAT1 assessed as inhibition of forskolin-stimulated cAMP production after 20 mins by HTRF assay
outcome.measure: IC50 (µM)
Form entry: value (µM) — number only.

Here is how some compounds turned out for IC50.
Query: Form field - read-out: IC50; system: Metabotropic glutamate receptor 3 (Homo sapiens, UniProt Q14832); submitted item: "N[C@@]1(C(=O)O)C[C@H](Sc2ccccc2)[C@H]2[C@H](C(=O)O)[C@H]21"
Reply: 3.37

Query: Form field - read-out: IC50; system: Metabotropic glutamate receptor 3 (Homo sapiens, UniProt Q14832); submitted item: "CC(=O)N[C@@H]1C[C@@](N)(C(=O)O)[C@@H]2[C@@H](C(=O)O)[C@@H]21"
Reply: 3.39

Query: Form field - read-out: IC50; system: Metabotropic glutamate receptor 3 (Homo sapiens, UniProt Q14832); submitted item: "N[C@@]1(C(=O)O)C[C@@H](Sc2ccccc2)[C@H]2[C@H](C(=O)O)[C@H]21"
Reply: 0.895

Further cases:
Query: Form field - read-out: IC50; system: Metabotropic glutamate receptor 3 (Homo sapiens, UniProt Q14832); submitted item: "C[C@@H]1C[C@@](N)(C(=O)O)[C@@H]2[C@@H](C(=O)O)[C@@H]21"
Reply: 3.42

----------
experimental.system: Metabotropic glutamate receptor 2 (Homo sapiens)
Sequence (Q14416 whole entry): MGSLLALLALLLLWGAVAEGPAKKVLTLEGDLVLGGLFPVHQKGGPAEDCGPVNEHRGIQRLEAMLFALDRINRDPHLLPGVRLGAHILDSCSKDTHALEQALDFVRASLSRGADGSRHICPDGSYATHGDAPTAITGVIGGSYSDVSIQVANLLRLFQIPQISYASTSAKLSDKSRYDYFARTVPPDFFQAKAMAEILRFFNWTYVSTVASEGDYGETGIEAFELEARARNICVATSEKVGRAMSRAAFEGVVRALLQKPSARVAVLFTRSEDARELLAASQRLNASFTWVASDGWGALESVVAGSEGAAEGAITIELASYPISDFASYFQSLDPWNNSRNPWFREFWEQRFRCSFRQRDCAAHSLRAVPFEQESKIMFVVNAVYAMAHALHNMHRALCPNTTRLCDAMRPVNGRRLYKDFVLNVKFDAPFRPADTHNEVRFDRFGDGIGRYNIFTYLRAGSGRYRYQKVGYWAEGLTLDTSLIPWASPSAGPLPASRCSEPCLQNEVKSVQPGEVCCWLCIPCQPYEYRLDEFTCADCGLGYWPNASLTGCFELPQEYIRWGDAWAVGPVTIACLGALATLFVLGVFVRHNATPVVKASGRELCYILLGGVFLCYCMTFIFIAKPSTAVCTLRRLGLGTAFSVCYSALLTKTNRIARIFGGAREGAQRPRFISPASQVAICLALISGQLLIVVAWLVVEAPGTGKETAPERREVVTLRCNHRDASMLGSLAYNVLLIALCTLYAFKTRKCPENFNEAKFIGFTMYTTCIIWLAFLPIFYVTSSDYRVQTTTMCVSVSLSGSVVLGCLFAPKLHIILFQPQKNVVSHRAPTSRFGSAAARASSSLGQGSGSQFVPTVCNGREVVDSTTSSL
experiment.summary: Antagonist activity at human mGlu2 receptor expressed in golden Syrian hamster AV12 cells coexpressing EAAT1 assessed as inhibition of forskolin-stimulated cAMP production after 20 mins by HTRF assay
outcome.measure: pIC50
Keep it numeric: pIC50 is minus log10 of the concentration in mol/L.

Query: Look up pIC50 for this compound: "CC(=O)N[C@@H]1C[C@@](N)(C(=O)O)[C@@H]2[C@@H](C(=O)O)[C@@H]21"
Reply: 5.30

Further cases:
Query: Look up pIC50 for this compound: "N[C@@]1(C(=O)O)C[C@@H](Sc2ccccc2)[C@H]2[C@H](C(=O)O)[C@H]21"
Reply: 5.15

----------
experiment.summary: Cmax in Sprague-Dawley rat at 3 mg/kg, po up to 24 hrs by LC/MS/MS analysis
Format: ADME, organism-based
Design: dose 3 mg/kg, route oral
measurement.setup: in vivo
outcome.measure: Cmax (µM)
Form entry: value (µM) — number only.

Query: Look up Cmax for this molecule: "N[C@@]1(C(=O)O)C[C@@H](F)[C@H]2[C@H](C(=O)O)[C@H]21"
Reply: 3.94

----------
experimental.system: Metabotropic glutamate receptor 2 (Homo sapiens)
experiment.summary: Agonist activity at human mGlu2 receptor expressed in golden Syrian hamster AV12 cells coexpressing EAAT1 after 20 mins by HTRF assay
// boundary case: EC50 equal to 30 nM maps to n; strictly smaller maps to y

These recorded examples may help you get a feel for the data.
Query: Decide: EC50 of "N[C@H]1C[C@@](N)(C(=O)O)[C@@H]2[C@@H](C(=O)O)[C@@H]21" strictly below 30 nM?
Reply: y

Query: Decide: EC50 of "[N-]=[N+]=N[C@@H]1C[C@@](N)(C(=O)O)[C@@H]2[C@@H](C(=O)O)[C@@H]21" strictly below 30 nM?
Reply: y

Query: Decide: EC50 of "N[C@@]1(C(=O)O)C[C@H](Sc2ccccc2)[C@H]2[C@H](C(=O)O)[C@H]21" strictly below 30 nM?
Reply: n

Query: Decide: EC50 of "C[C@H]1C[C@@](N)(C(=O)O)[C@@H]2[C@@H](C(=O)O)[C@@H]21" strictly below 30 nM?
Reply: y

Query: Decide: EC50 of "N[C@@]1(C(=O)O)C[C@H](O)[C@H]2[C@H](C(=O)O)[C@H]21" strictly below 30 nM?
Reply: y

Query: Decide: EC50 of "N[C@@]1(C(=O)O)C[C@@H](F)[C@H]2[C@H](C(=O)O)[C@H]21" strictly below 30 nM?
Reply: y

Further cases:
Query: Decide: EC50 of "C=C1C[C@@](N)(C(=O)O)[C@H]2[C@@H]1[C@@H]2C(=O)O" strictly below 30 nM?
Reply: y

Query: Decide: EC50 of "N[C@@]1(C(=O)O)C[C@@H](O)[C@H]2[C@H](C(=O)O)[C@H]21" strictly below 30 nM?
Reply: y

Query: Decide: EC50 of "C[C@@H]1C[C@@](N)(C(=O)O)[C@@H]2[C@@H](C(=O)O)[C@@H]21" strictly below 30 nM?
Reply: n

Query: Decide: EC50 of "[N-]=[N+]=N[C@H]1C[C@@](N)(C(=O)O)[C@@H]2[C@@H](C(=O)O)[C@@H]21" strictly below 30 nM?
Reply: y

Query: Decide: EC50 of "N[C@@]1(C(=O)O)CC(=O)[C@H]2[C@H](C(=O)O)[C@H]21" strictly below 30 nM?
Reply: y

Query: Decide: EC50 of "CC(=O)N[C@H]1C[C@@](N)(C(=O)O)[C@@H]2[C@@H](C(=O)O)[C@@H]21" strictly below 30 nM?
Reply: n

Query: Decide: EC50 of "N[C@@H]1C[C@@](N)(C(=O)O)[C@@H]2[C@@H](C(=O)O)[C@@H]21" strictly below 30 nM?
Reply: n
